FYI, the data here is from ChEMBL document CHEMBL2346533.

target_of_assay: Carbonic anhydrase 3 (Homo sapiens, UniProt P07451)
Sequence (P07451 whole entry, canonical isoform): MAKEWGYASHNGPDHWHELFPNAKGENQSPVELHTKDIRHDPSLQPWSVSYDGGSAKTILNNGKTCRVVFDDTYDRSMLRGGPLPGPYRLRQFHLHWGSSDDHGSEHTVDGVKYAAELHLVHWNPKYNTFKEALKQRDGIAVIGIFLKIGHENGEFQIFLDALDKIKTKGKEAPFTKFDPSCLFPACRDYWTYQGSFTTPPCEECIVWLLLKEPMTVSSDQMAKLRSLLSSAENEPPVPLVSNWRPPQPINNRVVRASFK
test_protocol: Inhibition of human carbonic anhydrase-3 cytosolic isoform after 15 mins by Stopped-flow CO2 hydrase assay
quantity_name: Ki (µM)

INSERT INTO results (smiles_representation, obs_value) VALUES
  ('NS(=O)(=O)c1nnc(NC(=O)CC23CC4CC(CC(C4)C2)C3)s1', 1400),
  ('NS(=O)(=O)c1nnc(NC(=O)C23CC4CC(CC(C4)C2)C3)s1', 1200);

----------
target_of_assay: Carbonic anhydrase 9 (Homo sapiens)
test_protocol: Inhibition of tumor-associated transmembrane human carbonic anhydrase-9 after 15 mins by Stopped-flow CO2 hydrase assay
pKi: −log10 of the molar value.
quantity_name: pKi

INSERT INTO assay_data (smiles_representation, target_of_assay, quantity_name, obs_value) VALUES
  ('NS(=O)(=O)c1ccc(NC(=O)CC23CC4CC(CC(C4)C2)C3)cc1', 'Carbonic anhydrase 9 (Homo sapiens)', 'pKi', 7.25),
  ('NS(=O)(=O)c1ccc(NC(=O)C23CC4CC(CC(C4)C2)C3)cc1', 'Carbonic anhydrase 9 (Homo sapiens)', 'pKi', 7.29);
